- Protocol notes: Cytotoxicity against human T cells assessed as cell viability at IC50 after 24 hrs by MTT assay
- Type: cell-based
- Recorded conditions: read-out: Activity
Assignment: determine reported viability at 24 h for the given molecules.
I only need the number, in %, no unit after it.

Look up viability at 24 h for this molecule: C[C@@H](C(=O)O)[C@@]1(C)CC[C@H]2[C@@](C)(CC[C@@]3(C)[C@@H]4CC(C)(C)CC[C@]4(C)CC[C@]23C)[C@@H]1CC=O
89

Look up viability at 24 h for this molecule: C[C@H]1[C@@H](O)[C@H](O)C[C@@H]2[C@]1(C)CC[C@H]1[C@@]2(C)CC[C@@]2(C)[C@@H]3CC(C)(C)CC[C@]3(C)CC[C@]12C [PACHYSANDIOL A]
113

Look up viability at 24 h for this molecule: C[C@H]1C(=O)[C@H](O)C[C@@H]2[C@]1(C)CC[C@H]1[C@@]2(C)CC[C@@]2(C)[C@@H]3CC(C)(C)CC[C@]3(C)CC[C@]12C
92.7

----------
Assignment: determine reported IC50 for the given compounds.
- Protocol notes: Inhibition of PHA-induced human T cell proliferation after 24 hrs by MTT assay
- Type: functional, cell-based
I only need the number, in µM, no unit after it.

Look up IC50 for this compound: C[C@H]1[C@@H](O)[C@H](O)C[C@@H]2[C@]1(C)CC[C@H]1[C@@]2(C)CC[C@@]2(C)[C@@H]3CC(C)(C)CC[C@]3(C)CC[C@]12C [PACHYSANDIOL A]
79.1

Look up IC50 for this compound: C[C@@H](C(=O)O)[C@@]1(C)CC[C@H]2[C@@](C)(CC[C@@]3(C)[C@@H]4CC(C)(C)CC[C@]4(C)CC[C@]23C)[C@@H]1CC=O
10.7

Look up IC50 for this compound: C[C@H]1C(=O)[C@H](O)C[C@@H]2[C@]1(C)CC[C@H]1[C@@]2(C)CC[C@@]2(C)[C@@H]3CC(C)(C)CC[C@]3(C)CC[C@]12C
82.3

----------
- Tested on: NCI-H460
- Protocol notes: Cytotoxicity against human NCI-H460 cells by SRB assay
- Assay type: functional
Recorded metric: GI50

Look up GI50 for this compound: C[C@H]1C(=O)[C@H](O)C[C@@H]2[C@]1(C)CC[C@H]1[C@@]2(C)CC[C@@]2(C)[C@@H]3CC(C)(C)CC[C@]3(C)CC[C@]12C
67.8 µM

Look up GI50 for this compound: CC1=C(O)C(=O)C[C@H]2[C@]3(C)CC[C@@]4(C)[C@@H]5CC(C)(C)CC[C@]5(C)CC[C@]4(C)[C@H]3CC[C@]12C
> 100 µM

Look up GI50 for this compound: C[C@H]1[C@@H](O)CC[C@@H]2[C@]1(C)CC[C@H]1[C@@]2(C)CC[C@@]2(C)[C@@H]3CC(C)(C)CC[C@]3(C)CC[C@]12C [EPIFRIEDELINOL]
> 100 µM

Look up GI50 for this compound: C[C@H]1[C@H](O)CC[C@@H]2[C@]1(C)CC[C@H]1[C@@]2(C)CC[C@@]2(C)[C@@H]3CC(C)(C)CC[C@]3(C)CC[C@]12C
> 100 µM

Look up GI50 for this compound: C[C@H]1C(=O)CC[C@@H]2[C@]1(C)CC[C@H]1[C@@]2(C)CC[C@@]2(C)[C@@H]3CC(C)(C)CC[C@]3(C)CC[C@]12C
> 100 µM

// provenance: ChEMBL document CHEMBL1156353
